Ref: patent US20120114557A1

TARGET UNDER TEST: rat collagen type I (rat) (UniProt P02454)
Sequence (P02454 152-1207, chain 1 of 2): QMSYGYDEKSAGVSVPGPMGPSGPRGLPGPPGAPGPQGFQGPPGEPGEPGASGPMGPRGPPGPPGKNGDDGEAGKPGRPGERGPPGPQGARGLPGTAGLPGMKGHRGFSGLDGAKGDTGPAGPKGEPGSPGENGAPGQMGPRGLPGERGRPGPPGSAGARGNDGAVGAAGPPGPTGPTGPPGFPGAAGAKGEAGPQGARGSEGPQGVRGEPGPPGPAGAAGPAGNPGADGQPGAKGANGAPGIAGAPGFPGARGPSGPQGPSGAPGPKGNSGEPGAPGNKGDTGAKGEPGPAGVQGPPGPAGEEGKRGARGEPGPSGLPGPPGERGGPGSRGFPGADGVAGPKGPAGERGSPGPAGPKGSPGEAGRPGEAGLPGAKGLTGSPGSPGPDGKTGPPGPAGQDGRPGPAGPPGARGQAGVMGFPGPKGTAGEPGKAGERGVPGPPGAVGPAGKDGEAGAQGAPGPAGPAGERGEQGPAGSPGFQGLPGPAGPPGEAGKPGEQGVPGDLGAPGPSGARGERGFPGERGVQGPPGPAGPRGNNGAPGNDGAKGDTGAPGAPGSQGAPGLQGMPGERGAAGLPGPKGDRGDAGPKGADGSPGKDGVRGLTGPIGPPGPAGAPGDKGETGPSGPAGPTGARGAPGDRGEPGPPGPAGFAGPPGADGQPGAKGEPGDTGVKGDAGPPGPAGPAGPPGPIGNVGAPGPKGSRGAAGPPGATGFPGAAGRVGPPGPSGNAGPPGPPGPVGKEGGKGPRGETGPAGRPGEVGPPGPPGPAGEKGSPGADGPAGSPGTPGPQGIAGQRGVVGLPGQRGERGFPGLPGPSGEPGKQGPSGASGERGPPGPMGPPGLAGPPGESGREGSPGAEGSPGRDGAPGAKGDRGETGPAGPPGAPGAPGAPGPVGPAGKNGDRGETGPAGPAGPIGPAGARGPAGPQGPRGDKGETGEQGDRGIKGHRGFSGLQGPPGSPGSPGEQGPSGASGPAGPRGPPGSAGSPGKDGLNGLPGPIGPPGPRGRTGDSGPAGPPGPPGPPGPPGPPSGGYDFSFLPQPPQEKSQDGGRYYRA
Sequence (P02466 86-1125, chain 2 of 2, further chain): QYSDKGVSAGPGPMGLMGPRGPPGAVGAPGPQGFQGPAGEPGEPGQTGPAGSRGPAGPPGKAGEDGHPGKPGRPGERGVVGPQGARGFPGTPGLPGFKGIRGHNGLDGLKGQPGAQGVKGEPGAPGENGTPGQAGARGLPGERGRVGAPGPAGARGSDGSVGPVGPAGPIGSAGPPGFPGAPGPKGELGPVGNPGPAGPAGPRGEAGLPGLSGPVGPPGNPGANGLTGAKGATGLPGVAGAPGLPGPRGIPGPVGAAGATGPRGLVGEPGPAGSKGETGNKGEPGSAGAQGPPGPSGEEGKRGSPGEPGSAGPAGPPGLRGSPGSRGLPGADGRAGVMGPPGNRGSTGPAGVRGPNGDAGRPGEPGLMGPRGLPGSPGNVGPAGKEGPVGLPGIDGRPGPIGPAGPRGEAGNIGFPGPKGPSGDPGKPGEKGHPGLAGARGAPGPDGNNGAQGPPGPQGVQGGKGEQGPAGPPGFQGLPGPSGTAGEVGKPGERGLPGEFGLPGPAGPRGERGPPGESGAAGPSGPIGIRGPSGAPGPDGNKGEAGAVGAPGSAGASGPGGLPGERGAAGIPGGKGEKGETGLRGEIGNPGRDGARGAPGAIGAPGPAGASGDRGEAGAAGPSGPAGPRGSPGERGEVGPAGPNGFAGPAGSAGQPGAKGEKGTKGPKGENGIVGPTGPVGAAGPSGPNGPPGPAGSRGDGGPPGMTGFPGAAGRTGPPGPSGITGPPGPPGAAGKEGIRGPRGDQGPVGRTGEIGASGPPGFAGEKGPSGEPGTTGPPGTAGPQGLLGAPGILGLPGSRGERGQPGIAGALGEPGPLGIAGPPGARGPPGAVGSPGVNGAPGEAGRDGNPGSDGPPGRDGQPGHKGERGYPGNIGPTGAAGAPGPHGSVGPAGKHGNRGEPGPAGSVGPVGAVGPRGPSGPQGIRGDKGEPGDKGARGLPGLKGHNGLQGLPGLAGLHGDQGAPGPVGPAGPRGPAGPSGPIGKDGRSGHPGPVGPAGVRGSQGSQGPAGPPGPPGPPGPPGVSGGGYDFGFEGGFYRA
TEST: dried collagen assay, 5 uM peptide
Bridge positions count the residues as written; N and C are the ends. Square brackets hold non-standard residues; d marks the D form. Ends that are not written are not given here. NMeA = CN[C@@H](C)C(=O)O; Sar = CNCC(=O)O
METRIC: % Collagen Binding, Dried Rat (%)
Numbers only; they are read as %.

Exercise: Read off the recorded % Collagen Binding, Dried Rat for YHACYQA[Sar]CWIW (disulfide 4-9 (inferred)) [SEQ ID NO: 104]
Solution: 19

Exercise: Read off the recorded % Collagen Binding, Dried Rat for YHACYQAGC[dW]IW (disulfide 4-9 (inferred)) [SEQ ID NO: 160]
Solution: 12

Exercise: Read off the recorded % Collagen Binding, Dried Rat for YHACYQAGCYIW (disulfide 4-9 (inferred)) [SEQ ID NO: 107]
Solution: 6

Exercise: Read off the recorded % Collagen Binding, Dried Rat for YHACYQ[dA]GCWIW (disulfide 4-9 (inferred)) [SEQ ID NO: 158]
Solution: 66

Exercise: Read off the recorded % Collagen Binding, Dried Rat for DWTCS[dR]DEYTWHCNYE (disulfide 4-13 (inferred); not fully specified (C-terminus); printed as D W T C S r D E Y T W H C N Y E) [SEQ ID NO: 181]
Solution: 86

Exercise: Read off the recorded % Collagen Binding, Dried Rat for GQWTCSGDEY[dT]WHCNYE (disulfide 5-14 (inferred); not fully specified (C-terminus)) [SEQ ID NO: 172]
Solution: 8

Exercise: Read off the recorded % Collagen Binding, Dried Rat for DWTCS[dL]DEYTWHCNYE (disulfide 4-13 (inferred); not fully specified (C-terminus); printed as D W T C S l D E Y T W H C N Y E) [SEQ ID NO: 183]
Solution: 63

Exercise: Read off the recorded % Collagen Binding, Dried Rat for GQ[dW]TCSGDEYTWHCNYE (disulfide 5-14 (inferred)) [SEQ ID NO: 165]
Solution: 4

Exercise: Read off the recorded % Collagen Binding, Dried Rat for GQWTC[dS]GDEYTWHCNYE (disulfide 5-14 (inferred)) [SEQ ID NO: 168]
Solution: 2

Exercise: Read off the recorded % Collagen Binding, Dried Rat for YHACYQ[NMeA]GCWIW (disulfide 4-9 (inferred)) [SEQ ID NO: 105]
Solution: 23

Exercise: Read off the recorded % Collagen Binding, Dried Rat for GQWTCSGDEYTW[dH]CNYE (disulfide 5-14 (inferred); not fully specified (C-terminus)) [SEQ ID NO: 174]
Solution: 0

Exercise: Read off the recorded % Collagen Binding, Dried Rat for GQWTCSGD[dE]YTWHCNYE (disulfide 5-14 (inferred); not fully specified (C-terminus)) [SEQ ID NO: 170]
Solution: 35

Exercise: Read off the recorded % Collagen Binding, Dried Rat for YHACYQAGCWAW (disulfide 4-9 (inferred)) [SEQ ID NO: 137]
Solution: 7

Exercise: Read off the recorded % Collagen Binding, Dried Rat for YHACY[dQ]AGCWIW (disulfide 4-9 (inferred)) [SEQ ID NO: 157]
Solution: 35

Exercise: Read off the recorded % Collagen Binding, Dried Rat for GQWTCSADEYTWHCNYE (disulfide 5-14 (inferred)) [SEQ ID NO: 142]
Solution: 6

Exercise: Read off the recorded % Collagen Binding, Dried Rat for G[dQ]WTCSGDEYTWHCNYE (disulfide 5-14 (inferred)) [SEQ ID NO: 164]
Solution: 31

Exercise: Read off the recorded % Collagen Binding, Dried Rat for GQWTCSGDE[dY]TWHCNYE (disulfide 5-14 (inferred); not fully specified (C-terminus)) [SEQ ID NO: 171]
Solution: 6

Exercise: Read off the recorded % Collagen Binding, Dried Rat for YHAC[dY]QAGCWIW (disulfide 4-9 (inferred)) [SEQ ID NO: 156]
Solution: 48

Exercise: Read off the recorded % Collagen Binding, Dried Rat for YH[dA]CYQAGCWIW (disulfide 4-9 (inferred)) [SEQ ID NO: 154]
Solution: 21

Exercise: Read off the recorded % Collagen Binding, Dried Rat for GQWTCSGDEYTWHC[dN]YE (disulfide 5-14 (inferred); not fully specified (C-terminus)) [SEQ ID NO: 176]
Solution: 2

Exercise: Read off the recorded % Collagen Binding, Dried Rat for GQWTCSGDEYT[dW]HCNYE (disulfide 5-14 (inferred); not fully specified (C-terminus)) [SEQ ID NO: 173]
Solution: 4
